Compiled notes: published IC50 values involving Vascular endothelial growth factor receptor 2 (Homo sapiens).
VALUE_KIND: IC50

> print(dat)
                                   compound                         target.under.test     result
1  COc1cc2nccc(Oc3ccc(NC(=S)N4CCCC4)c(Cl)c3)c2cc1C(N)=O  Vascular endothelial growth factor receptor 2 (Homo sapiens)  < 0.05 µM
2  CCN(CC)c1ccc(Nc2ncc(-c3cccc(OC4CCCC4)c3)o2)cn1  Vascular endothelial growth factor receptor 2 (Homo sapiens)    < 10 µM
3    O=C(c1ccc(O)cc1Cl)c1c[nH]c2ncc(Br)cc12  Vascular endothelial growth factor receptor 2 (Homo sapiens)    ≤ 10 µM
4  Cn1cc(-c2nccc(Oc3cccc(NC(=O)Nc4ccc(OC(F)(F)F)cc4)c3)n2)cn1  Vascular endothelial growth factor receptor 2 (Homo sapiens)    ≤ 10 µM
5  COc1ccc(OC)c(C2Cc3cnc(Nc4ccccc4)nc3N(c3ccccc3)C2=O)c1 (stereo not shown)  Vascular endothelial growth factor receptor 2 (Homo sapiens)    < 10 µM
6  COCCOc1cc2ncnc(Oc3ccc(NC(=O)NC4CCC4)c(Cl)c3)c2c2c1OCCO2  Vascular endothelial growth factor receptor 2 (Homo sapiens)  < 0.05 µM
7  CN(C)CCNc1nc(-c2cc(Oc3cccc(NC(=O)Nc4ccc(Cl)c(C(F)(F)F)c4)c3)ncn2)cs1  Vascular endothelial growth factor receptor 2 (Homo sapiens)    ≤ 10 µM
